Origin of measurements: patent US20260373248A1

Let's look at some molecules and their measured % Encapsulation.
Test system: mRNA
Assay: mRNA encapsulation (modified Quant-iT RiboGreen assay)
Type: physicochemical
Conditions: mRNA; formulation recipe F2
Non-standard residues stand in square brackets, D forms with d. Residues, ends and D or L forms follow the SMILES beside them. *: point of attachment. Gly(N-(3-decanoyloxypropyl)) = CCCCCCCCCC(=O)OCCCNCC(=O)O; N(3-lauroyloxypropyl)Gly = CCCCCCCCCCCC(=O)OCCCNCC(=O)O; N(2-decanoyloxyethyl)Gly = CCCCCCCCCC(=O)OCCNCC(=O)O; Gly(N-(CH2)3O-octanoyl) = CCCCCCCC(=O)OCCCNCC(=O)O; N(3-imidazol-1-ylpropyl)Gly = O=C(O)CNCCCn1ccnc1; Gly(N-3-morpholinopropyl) = O=C(O)CNCCCN1CCOCC1; N(2-ethylhexyl)Gly = CCCCC(CC)CNCC(=O)O; Gly(N-dodecyl) = CCCCCCCCCCCCNCC(=O)O; N(CH(CH2OH)2)Gly = O=C(O)CNC(CO)CO; NHexGly = CCCCCCNCC(=O)O; For = O=C*
# unit: % | format: bare number

Assign % Encapsulation to the following record: CCCCCCCCCC(=O)OCCN(CC(=O)N(CCOC(=O)CCCCCCCCC)CC(=O)N(CC(=O)N(CCOC(=O)CCCCCCCCC)CC(=O)N(CCOC(=O)CCCCCCCCC)CC(=O)N(CC(N)=O)CC(CC)CCCC)CC(CC)CCCC)C(=O)CNC(CO)CO (stereo not shown) [Compound 16] (H-[N(CH(CH2OH)2)Gly][N(2-decanoyloxyethyl)Gly][N(2-decanoyloxyethyl)Gly][N(2-ethylhexyl)Gly][N(2-decanoyloxyethyl)Gly][N(2-decanoyloxyethyl)Gly][N(2-ethylhexyl)Gly]-NH2) 90.8

For the molecule CCCCCCCCCC(=O)OCCCN(CC(=O)N(CCCOC(=O)CCCCCCCCC)CC(=O)N(CCCCCC)CC(=O)N(CCCOC(=O)CCCCCCCCC)CC(=O)N(CCCOC(=O)CCCCCCCCC)CC(=O)N(CCCCCC)CC(N)=O)C(=O)CN(C=O)CCCN1CCOCC1 [Compound 108] (For-[Gly(N-3-morpholinopropyl)][Gly(N-(3-decanoyloxypropyl))][Gly(N-(3-decanoyloxypropyl))][NHexGly][Gly(N-(3-decanoyloxypropyl))][Gly(N-(3-decanoyloxypropyl))][NHexGly]-NH2) , report % Encapsulation. 60.1

Supply measured % Encapsulation of CCCCCCCCCCCC(=O)OCCCN(CC(=O)N(CC(=O)N(CCCn1ccnc1)CC(=O)N(CC(=O)N(CCCOC(=O)CCCCCCCCCCC)CC(=O)N(CC(N)=O)CC(CC)CCCC)CC(CC)CCCC)CC(CC)CCCC)C(=O)CN(C=O)CC(CC)CCCC (stereo not shown) [Compound 82] (For-[N(2-ethylhexyl)Gly][N(3-lauroyloxypropyl)Gly][N(2-ethylhexyl)Gly][N(3-imidazol-1-ylpropyl)Gly][N(2-ethylhexyl)Gly][N(3-lauroyloxypropyl)Gly][N(2-ethylhexyl)Gly]-NH2) in your reply. 75.3

Return % Encapsulation (reported value) for this molecule: CCCCCCCCCCCCN(C=O)CC(=O)N(CCCOC(=O)CCCCCCC)CC(=O)N(CC(=O)N(CCCN1CCOCC1)CC(=O)N(CC(=O)N(CCCOC(=O)CCCCCCC)CC(=O)N(CCCCCCCCCCCC)CC(N)=O)CC(CC)CCCC)CC(CC)CCCC (stereo not shown) [Compound 116] (For-[Gly(N-dodecyl)][Gly(N-(CH2)3O-octanoyl)][N(2-ethylhexyl)Gly][Gly(N-3-morpholinopropyl)][N(2-ethylhexyl)Gly][Gly(N-(CH2)3O-octanoyl)][Gly(N-dodecyl)]-NH2) 67.8

---

System: hEPO
Assay: Quantification of hEPO in serum after IV injection of mRNA (Human EPO ELISA)
Format: in vivo
Conditions: Balb/c mice, 2.5 μg mRNA IV, serum after 6 hours
Non-standard residues stand in square brackets, D forms with d. Residues, ends and D or L forms follow the SMILES beside them. *: point of attachment. Gly(N-(3-decanoyloxypropyl)) = CCCCCCCCCC(=O)OCCCNCC(=O)O; N(3-lauroyloxypropyl)Gly = CCCCCCCCCCCC(=O)OCCCNCC(=O)O; N(3-imidazol-1-ylpropyl)Gly = O=C(O)CNCCCn1ccnc1; Gly(N-3-morpholinopropyl) = O=C(O)CNCCCN1CCOCC1; N(2-ethylhexyl)Gly = CCCCC(CC)CNCC(=O)O; Gly(N-dodecyl) = CCCCCCCCCCCCNCC(=O)O; N(octyl)Gly = CCCCCCCCNCC(=O)O; For = O=C*
test.readout: hEPO (ng/mL)
Report the value in ng/mL with no unit label.

Consider the following illustrative entries.
CCCCCCCCCCCC(=O)OCCCN(CC(=O)N(CC(=O)N(CCCn1ccnc1)CC(=O)N(CC(=O)N(CCCOC(=O)CCCCCCCCCCC)CC(=O)N(CC(N)=O)CC(CC)CCCC)CC(CC)CCCC)CC(CC)CCCC)C(=O)CN(C=O)CC(CC)CCCC (centres unmarked) [Compound 82] (For-[N(2-ethylhexyl)Gly][N(3-lauroyloxypropyl)Gly][N(2-ethylhexyl)Gly][N(3-imidazol-1-ylpropyl)Gly][N(2-ethylhexyl)Gly][N(3-lauroyloxypropyl)Gly][N(2-ethylhexyl)Gly]-NH2)
600
CCCCCCCCCCCCN(C=O)CC(=O)N(CCCOC(=O)CCCCCCCCC)CC(=O)N(CC(=O)N(CCCN1CCOCC1)CC(=O)N(CC(=O)N(CCCOC(=O)CCCCCCCCC)CC(=O)N(CCCCCCCCCCCC)CC(N)=O)CC(CC)CCCC)CC(CC)CCCC (centres unmarked) [Compound 88] (For-[Gly(N-dodecyl)][Gly(N-(3-decanoyloxypropyl))][N(2-ethylhexyl)Gly][Gly(N-3-morpholinopropyl)][N(2-ethylhexyl)Gly][Gly(N-(3-decanoyloxypropyl))][Gly(N-dodecyl)]-NH2)
109
CCCCCCCCCCCC(=O)OCCCN(CC(=O)N(CC(=O)N(CCCN1CCOCC1)CC(=O)N(CC(=O)N(CCCOC(=O)CCCCCCCCCCC)CC(=O)N(CC(N)=O)CC(CC)CCCC)CC(CC)CCCC)CC(CC)CCCC)C(=O)CN(C=O)CC(CC)CCCC (centres unmarked) [Compound 80] (For-[N(2-ethylhexyl)Gly][N(3-lauroyloxypropyl)Gly][N(2-ethylhexyl)Gly][Gly(N-3-morpholinopropyl)][N(2-ethylhexyl)Gly][N(3-lauroyloxypropyl)Gly][N(2-ethylhexyl)Gly]-NH2)
481
CCCCCCCCCC(=O)OCCCN(CC(=O)N(CC(N)=O)CC(CC)CCCC)C(=O)CN(CCCCCCCC)C(=O)CN(CC(CC)CCCC)C(=O)CN(CCCOC(=O)CCCCCCCCC)C(=O)CN(CCCCCCCC)C(=O)CN(C=O)CCCN1CCOCC1 (centres unmarked) [Compound 110] (For-[Gly(N-3-morpholinopropyl)][N(octyl)Gly][Gly(N-(3-decanoyloxypropyl))][N(2-ethylhexyl)Gly][N(octyl)Gly][Gly(N-(3-decanoyloxypropyl))][N(2-ethylhexyl)Gly]-NH2)
333

Please report hEPO for the following molecule: CCCCCCCCCCCC(=O)OCCCN(CC(=O)N(CC(N)=O)CC(CC)CCCC)C(=O)CN(CCCCCCCC)C(=O)CN(CC(CC)CCCC)C(=O)CN(CCCOC(=O)CCCCCCCCCCC)C(=O)CN(CCCCCCCC)C(=O)CN(C=O)CCCN1CCOCC1 (centres unmarked) [Compound 74] (For-[Gly(N-3-morpholinopropyl)][N(octyl)Gly][N(3-lauroyloxypropyl)Gly][N(2-ethylhexyl)Gly][N(octyl)Gly][N(3-lauroyloxypropyl)Gly][N(2-ethylhexyl)Gly]-NH2) 354

---

System: luciferase
Test: Luciferase expression after local (intramuscular or subcutaneous) administration of mRNA
Assay type: in vivo
Settings: subcutaneous, mRNA 0.01 mpk, 6 hours
Starred links: 1 amine or outer side, 2 acyl side, 3 side chain; linkers in the order of their positions; H or OH if unused. Non-standard residues stand in square brackets, D forms with d. Residues, ends and D or L forms follow the SMILES beside them. *: point of attachment. Gly(N-(3-decanoyloxypropyl)) = CCCCCCCCCC(=O)OCCCNCC(=O)O; Gly(N-(CH2)3O-octanoyl) = CCCCCCCC(=O)OCCCNCC(=O)O; Gly(N-3-morpholinopropyl) = O=C(O)CNCCCN1CCOCC1; N(2-ethylhexyl)Gly = CCCCC(CC)CNCC(=O)O; X1 = CCCCC(CC)CSSCCN(CC(=O)[*:2])[*:1]; Gly(N-dodecyl) = CCCCCCCCCCCCNCC(=O)O; N(CH(CH2OH)2)Gly = O=C(O)CNC(CO)CO; NHexGly = CCCCCCNCC(=O)O; For = O=C*
The following compounds are listed with their measured SC Flux values.
Answer with a number only, understood to be in p/s.

// solved cases for SC Flux follow
CCCCCCCC(=O)OCCCN(C=O)CC(=O)N(CCCOC(=O)CCCCCCC)CC(=O)N(CCc1ccccc1)CC(=O)N(CC(=O)N(CCCn1ccnc1)CC(=O)N(CCCOC(=O)CCCCCCC)CC(=O)N(CCc1ccccc1)CC(=O)N(CCCOC(=O)CCCCCCC)CC(=O)N(CC(N)=O)CC(CC)CCCC)CC(CC)CCCC (stereo not drawn)
1.01E+07
CCCCCCCCCCCCN(C=O)CC(=O)N(CCCOC(=O)CCCCCCC)CC(=O)N(CC(=O)N(CCCN1CCOCC1)CC(=O)N(CC(=O)N(CCCOC(=O)CCCCCCC)CC(=O)N(CCCCCCCCCCCC)CC(N)=O)CC(CC)CCCC)CC(CC)CCCC (stereo not drawn) [Compound 116] (For-[Gly(N-dodecyl)][Gly(N-(CH2)3O-octanoyl)][N(2-ethylhexyl)Gly][Gly(N-3-morpholinopropyl)][N(2-ethylhexyl)Gly][Gly(N-(CH2)3O-octanoyl)][Gly(N-dodecyl)]-NH2)
3.53E+08
CCCCCCCC(=O)OCCCN(CC(=O)N(CCCOC(=O)CCCCCCC)CC(=O)N(CCSSCC(CC)CCCC)CC(=O)N(CCCOC(=O)CCCCCCC)CC(=O)N(CCCOC(=O)CCCCCCC)CC(=O)N(CCSSCC(CC)CCCC)CC(N)=O)C(=O)CNC(CO)CO (stereo not drawn) [Compound 128] (H-[N(CH(CH2OH)2)Gly][Gly(N-(CH2)3O-octanoyl)][Gly(N-(CH2)3O-octanoyl)][X1][Gly(N-(CH2)3O-octanoyl)][Gly(N-(CH2)3O-octanoyl)][X1]-NH2)
6.68E+08

Note SC Flux for the compound shown: CCCCCCCCCC(=O)OCCCN(CC(=O)N(CC(=O)N(CCCCCC)CC(=O)N(CCCOC(=O)CCCCCCCCC)CC(=O)N(CC(=O)N(CCCCCC)CC(N)=O)CC(CC)CCCC)CC(CC)CCCC)C(=O)CNC(CO)CO (stereo not drawn) [Compound 55] (H-[N(CH(CH2OH)2)Gly][Gly(N-(3-decanoyloxypropyl))][N(2-ethylhexyl)Gly][NHexGly][Gly(N-(3-decanoyloxypropyl))][N(2-ethylhexyl)Gly][NHexGly]-NH2) 9.41E+07

Check the records and state SC Flux for CCCCCCCCCC(=O)OCCCN(C=O)CC(=O)N(CCCOC(=O)CCCCCCCCC)CC(=O)N(CC(=O)N(CCCN1CCOCC1)CC(=O)N(CCCOC(=O)CCCCCCCCC)CC(=O)N(CCCOC(=O)CCCCCCCCC)CC(=O)N(CC(N)=O)CC(CC)CCCC)CC(CC)CCCC (stereo not drawn) [Compound 112] (For-[Gly(N-(3-decanoyloxypropyl))][Gly(N-(3-decanoyloxypropyl))][N(2-ethylhexyl)Gly][Gly(N-3-morpholinopropyl)][Gly(N-(3-decanoyloxypropyl))][Gly(N-(3-decanoyloxypropyl))][N(2-ethylhexyl)Gly]-NH2) 2.33E+08

Using the record for CCCCCCCCCCCC(=O)OCCN(CC(=O)N(CCOC(=O)CCCCCCCCCCC)CC(=O)N(CC(=O)N(CCOC(=O)CCCCCCCCCCC)CC(=O)N(CCOC(=O)CCCCCCCCCCC)CC(=O)N(CC(N)=O)CC(CC)CCCC)CC(CC)CCCC)C(=O)CN(C=O)CCCN1CCOCC1 (stereo not drawn) , state its measured SC Flux. 2.00E+08
